Recorded values, source patent US8927500B2.

Biological target: MDMX (Homo sapiens)
Sequence (O15151 1-125): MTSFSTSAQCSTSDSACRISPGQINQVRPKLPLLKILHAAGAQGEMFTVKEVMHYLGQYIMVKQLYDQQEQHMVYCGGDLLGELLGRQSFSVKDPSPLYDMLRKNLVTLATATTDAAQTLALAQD
Assay: Competitive fluorescence polarization assay for MDMX
Format: binding
Details: competitive FP assay, read-out: IC50 (MDMX)
Below is a list of entries, each paired with its recorded IC50 value.

[
  {
    "COMPOUND": "CC(=O)N[C@@H](CC(C)C)C(=O)N[C@H](C(=O)N[C@@H](Cc1ccccc1)C(=O)N[C@]1(C)CCCCCCC=CCCC[C@@](C)(C(=O)N[C@@H](C)C(=O)N[C@@H](C)C(=O)N[C@@H](Cc2ccccc2)C(=O)N[C@H](C)C(N)=O)NC(=O)[C@H](CC(C)C)NC(=O)[C@H](CCC(N)=O)NC(=O)[C@H](C)NC(=O)[C@H](Cc2c[nH]c3ccccc23)NC(=O)[C@H](Cc2ccc(O)cc2)NC(=O)[C@H](CCC(=O)O)NC1=O)[C@@H](C)O (single isomer, unassigned)",
    "EXPERIMENTAL RESULT": "100 to 1000 nM"
  }
]

--- query ---
### Prompt Please report the recorded IC50 for CC[C@H](C)[C@H](NC(=O)[C@H](C)NC(=O)[C@H](C)NC(=O)[C@]1(C)CCCC=CCCCCCC[C@@](C)(NC(=O)[C@H](Cc2ccccc2)NC(=O)[C@@H](NC(=O)[C@H](CC(C)C)NC(C)=O)[C@@H](C)O)C(=O)N[C@@H](C)C(=O)N[C@@H](Cc2ccc(O)cc2)C(=O)N[C@@H](Cc2c[nH]c3ccccc23)C(=O)N[C@@H](C)C(=O)N[C@@H](C)C(=O)N[C@@H](CC(C)C)C(=O)N1)C(=O)N[C@H](C)C(N)=O (single isomer, unassigned) .
### Response 100 to 1000 nM
